METHOD_NOTES: Population PK modeling of voxelotor in patients aged 4 to 11 years (part C)
Format: in vivo, human
TEST_CONDITIONS: human, whole blood, oral; geometric mean (% CV); 4-11 years; 600/900/1500 mg weight-based; n=38
Text: Population PK modeling was used to determine the whole-blood and plasma PK parameters of voxelotor in the study population. The PK parameters included maximum whole blood or plasma concentration (Cmax), area under the concentration-time curve (AUC), terminal elimination half-life (t1/2), and percent Hb occupancy. Statistical analyses: All efficacy and safety assessments were summarized with descriptive statistics. […]

| COMPOUND | Cmax, µg/mL |
| --- | --- |
| CC(C)n1nccc1-c1ncccc1COc1cccc(O)c1C=O [voxelotor] | 148 |
